- System: MOLT-4 leukemia
- ASSAY_SUMMARY: NCI-60 one-dose screen, 48 h (100 = growth as untreated, 0 = no growth, -100 = all killed)
- CONDITIONS: 10 µM unless noted
- Protocol: Growth inhibition of the MOLT-4 human tumor cell line is measured as a screen for anti-cancer activity. Cells are grown in 96 well plates and exposed to the test compound for 48 hours. Compounds are tested at a single concentration, which is 10^-5 M for most compounds. The reported endpoint is percent growth (GI% or GIPRCNT), where numbers from 0 - 100% represent growth inhibition, and numbers from -100% - 0 represent cell death. For example, a value of 40 represents 60% growth inhibition. […]
The panel holds about 83,000 compounds, 20% with a hit somewhere; the sample as a whole holds those more often.
Exercise: for every item that follows, state its recorded growth.
Give bare numbers, in %.

COMPOUND	RESULT_UNIT	growth
Nc1c(C(=O)Nc2c(Cl)cccc2Cl)sc2nc3c(cc12)CCCC3	%	46.9
NC(=O)NCC1CCCCC1	%	91.9

Respectfully, I request growth for each entry included below.
1. OCC1OC(n2cnc3c(Cl)ncnc32)CC1O (stereo unspecified)
2. Cc1ccc(-c2ccc(/C=C(\C#N)c3nc(-c4ccco4)cs3)o2)cc1
3. C#Cc1cc2c(N)c(C(=O)c3cc(OC)c(OC)c(OC)c3)[nH]c2cc1OC
4. COC(=O)CNc1nc(N(C)O)nc(N(C)O)n1
5. Nc1c2c(nc3ccc(Br)cc13)CC(c1ccccc1)CC2=O (stereo unspecified)

RESULT:
91.9
94.6
32
25.9
29.3

# batch: return growth for each of the 2 compounds below
1. O=C1CNCCN1
2. COc1ccc(NC(=O)c2ccc3c(c2)nc(-c2cc4ccccc4[nH]c2=O)n3-c2cc(C(C)(C)C)[nH]n2)cc1

RESULT:
1. 94
2. 63.1

Value sought for every listed compound: growth.
1. C[C@@H](C(=O)O)c1ccc2c3cc(Cl)ccc3n(Cc3cc(=O)oc4ccc(Cl)cc34)c2c1
2. Cn1cc(-c2nc(-c3c[nH]c4ncccc34)cs2)c2ccccc21

RESULT:
[101, 77.8]

For every record below, what is its growth?
1. Cn1cnc2c1c(=O)n(CCC(=O)Nc1ccc(F)cc1)c(=O)n2C
2. O=S(=O)(NCCNc1cc(-c2cn(-c3ccccc3)nc2-c2cccc(O)c2)ccn1)c1ccc(Cl)cc1
3. CCC(CC)C(=O)OC(C)COc1ccc(C(C)(C)C)cc1 (stereo unspecified)
4. NC(Cc1ccc(O)cc1)C(=O)N/N=C/c1ccccc1O (stereo unspecified)

RESULT:
1. 106
2. 8.1
3. 82.7
4. 75.6

* * *

Please provide measured growth for the entries that follow.
- Tested on: SK-OV-3 ovarian
- ASSAY_SUMMARY: NCI-60 one-dose screen, 48 h (100 = growth as untreated, 0 = no growth, -100 = all killed)
- CONDITIONS: 10 µM unless noted
Compounds without any hit were thinned out: in the full panel of roughly 83,000, 20% have a hit.
Give bare numbers, in %.

# example entries with known answers
COMPOUND	TARGET	RESULT_UNIT	growth
COc1cc(/C=C2\C(=O)N(CC(O)COc3cc(O)c4c(=O)cc(-c5ccccc5)oc4c3)c3ccccc32)cc(OC)c1O (stereo unspecified)	SK-OV-3 ovarian	%	111
Cc1cc(N2CCCCC2)nc(N(CCNc2ccnc3cc(Cl)ccc23)Cc2ccco2)n1	SK-OV-3 ovarian	%	77.9

Field: growth. Fill in for each record below.
1. COc1ccc(-n2c(/C=C/c3ccc(O)c(OC)c3)cc(/C=C/c3ccc(O)c(OC)c3)nc2=O)cc1
2. C=C1C(=O)O[C@H]2[C@H]1CC/C(COC(=O)NCCc1c[nH]c3ccccc13)=C\CC[C@@]1(C)O[C@@H]21
3. Cc1[c-]onc1C.Cc1[c-]onc1C.[Ag].[Ag].[NH-]S(=O)(=O)c1ccc(N=Nc2cc(N=Nc3ccc(S([NH-])(=O)=O)cc3)c3c(NC(=O)C(Cl)Cl)cccc3c2OC(=O)C(Cl)Cl)cc1
4. CC1(C)NCCC[C@]2(C)[C@H]3CC[C@@H]4[C@H]5[C@H](C(=O)/C=C/c6ccccn6)CC[C@]5(CO)CC[C@@]4(C)[C@]3(C)CC[C@@H]12

RESULT:
62.3
89.1
111
82.2

Batch request: growth per item, same order as input.
1. Fc1ccc(Nc2nc(Nc3ccc(-c4nc5ccccc5[nH]4)cc3)nc(N3CCCC3)n2)cc1
2. O=C1Nc2ccccc2/C1=C/c1cn(CCCn2c3ccccc3c(=O)c3ccccc32)c2ccccc12
3. O=C1OC(c2ccc(Cl)c(Cl)c2)=C/C1=C/c1cccc([N+](=O)[O-])c1
4. Clc1ccc(Cn2cc(-c3nc4ccc(Br)nc4n3Cc3ccc(Cl)cc3)c3cccnc32)cc1
5. COc1cc2nc(Cl)nc(Nc3cccc(C(=O)/C=C/c4ccc(Br)cc4)c3)c2cc1OC
6. C[C@H]1[C@H]2C3=CC[C@@H]4[C@@]5(C)C/C(=C/c6ccco6)C(=O)C(C)(C)[C@@H]5CC[C@@]4(C)[C@]3(C)CC[C@@]2(C(=O)N2CCOCC2)CC[C@@H]1C
7. Cn1nc(-c2ccccc2)c2c(-c3ccccc3)onc2c1=O

RESULT:
[75.1, 86.6, 96.5, 80.9, 96.7, 107, 13.3]

Count: 3. Required value per item: growth.
1. Cc1cc(Cl)nc(N(CCCNc2ccnc3cc(Cl)ccc23)Cc2ccco2)n1
2. Oc1cc(/C=C/c2nc(N3CCOCC3)c3cc(Cl)c(Cl)cc3n2)cc(O)c1O
3. O=C1c2ccccc2NC(c2cn(-c3ccccc3)nc2-c2cccnc2)N1Cc1ccccc1 (stereo unspecified)

RESULT:
1. 40.8
2. 105
3. 117

* * *

What growth was measured for each of the following?
- Tested on: SK-MEL-2 melanoma
- ASSAY_SUMMARY: NCI-60 one-dose screen, 48 h (100 = growth as untreated, 0 = no growth, -100 = all killed)
- CONDITIONS: 10 µM unless noted
This is part of a sample that, as a whole, favours compounds with a hit. Of some 83,000 tested, about 20% had one in any assay.
Numbers only, in %.

Example entries and their recorded answers appear below.
Fc1ccc2[nH]cc(-c3nc(-c4c[nH]c5ncccc45)cs3)c2c1 52.9
COc1ccc2c(c1)C/C(=C\c1cc(-c3ccc4c(c3)OCO4)n[nH]1)C2=O 128
N#CCCCCCn1c2ccccc2c2c3[nH]c(=O)[nH]c(=O)c3c3c4ccccc4n(CCCCCC#N)c3c21 78.5
Cc1cc2nc3c4cc(Cl)ccc4n(CCN(C)C)c3nc2cc1C 43.6

Batch request: growth per item, same order as input.
1. COC(=O)[C@]12CC[C@@H](C(C)=O)[C@@H]1[C@H]1CC[C@@H]3[C@@]4(C)C/C(=C/c5cccnc5)C(=O)C(C)(C)[C@@H]4CC[C@@]3(C)[C@]1(C)CC2
2. O=C(/C=C/c1cccc2ccccc12)Nc1ncc(Cc2ccccc2)s1
3. Cc1nn(-c2ccc(Br)cc2)c2nc3[nH]c(=O)[nH]c(=O)c3nc12
4. Clc1ccccc1-c1nc(Nc2nc3ccccc3s2)nc(C(Cl)(Cl)Cl)n1
5. CC(=O)OCCCCCCn1c2ccccc2c2c3c(c4c5ccccc5n(C)c4c21)C(=O)N(O)C3=O
6. COc1ccc2c(c1)c(-c1nc(-c3c[nH]c4ncccc34)cs1)cn2C
7. Fc1ccc2nc(-c3cc(-c4ccc5c(c4)OCO5)n[nH]3)[nH]c2c1
8. COc1cccc(-c2nn(-c3ccccc3)cc2-c2ccnc(NCCCNS(=O)(=O)c3ccc(C(F)(F)F)cc3)c2)c1

RESULT:
1. 68.1
2. 43.4
3. 111
4. 85.9
5. 84.6
6. 60.9
7. 42.7
8. 19.3

* * *

- System: MCF7 breast
- ASSAY_SUMMARY: NCI-60 one-dose screen, 48 h
- CONDITIONS: 10 µM unless noted
The panel holds about 83,000 compounds, 20% with a hit somewhere; the sample as a whole holds those more often. Activity calls are given as the source filed them. How the source made its calls: active means growth percent below 10; inactive means the rest.
Assign a class; possible classes are active, inactive

# example entries with known answers
COc1cc(-c2cc3ncccc3c3nc(OCCN(C)C)c4cccnc4c23)cc(OC)c1OC active
O=C(/C=C/c1cccc2ccccc12)Nc1ncc(Cc2ccccc2)s1 inactive
CC1(n2nnnc2N2CCCN(c3ncccc3N)CC2)CCC1 inactive
COc1cccc(-c2nn(-c3ccccc3)cc2-c2ccnc(NCCCNS(=O)(=O)c3ccccc3)c2)c1 inactive

// switching to the query molecule
QUERY: Identify the outcome logged in this assay for the molecule shown: "Cn1c2ccccc2c2c3c(c4c5cccnc5[nH]c4c21)C(=O)N(O)C3=O"
RESULT: inactive

* * *

- Test system: OVCAR-4 ovarian
- ASSAY_SUMMARY: NCI-60 one-dose screen, 48 h
- CONDITIONS: 10 µM unless noted
The panel holds about 83,000 compounds, 20% with a hit somewhere; the sample as a whole holds those more often. Calls of active or inactive are those of the source. Rule for the calls: active = growth percent below 10; inactive = the rest.
Assign a class; possible classes are active, inactive

Would you please look over these solved cases?
COMPOUND	ASSIGNED_CLASS
CN(C)CCCC1(c2ccc(F)cc2)OCc2cc(-c3ccc(C(F)(F)F)nc3)ccc21 (stereo unspecified)	inactive
Cc1cc2nc3c4cc(Cl)ccc4n(CCN(C)C)c3nc2cc1C	inactive
Brc1ccc2c(c1)c(-c1nc(-c3c[nH]c4ncccc34)cs1)cn2CCCN1CCCCC1	inactive
Cn1c(=O)c2c(nc(N3CCCC3)n2C)n(C)c1=O	inactive
Clc1ccccc1-c1nc(Nc2nc3ccccc3s2)nc(C(Cl)(Cl)Cl)n1	inactive
CCC(CC)C(=O)OC(C)COc1ccc(C(C)(C)C)cc1 (stereo unspecified)	inactive

QUERY: I would be grateful if you could indicate the recorded call for "O=c1c2sc3ncc(Br)cc3c2ncn1-c1cccc(Cl)c1" .
RESULT: active

QUERY: Hello, I am checking results. What call was entered for COc1ccc2c(c1)C(Br)=C(CCO)C2c1ccccc1 (stereo unspecified) ?
RESULT: inactive

QUERY: What classification did "COc1ccc(-c2nc3ncccn3c2-c2nc3ccc(Br)cc3[nH]2)cc1" end up with in this test?
RESULT: inactive

QUERY: Hi team, can someone confirm the assay call for CCCC(=O)N1CCCCC1CC (stereo unspecified) ?
RESULT: inactive

QUERY: Identify the outcome logged in this assay for the compound shown: "O=C(CCCCCn1c2ccccc2c2c3c(c4c5ccccc5[nH]c4c21)C(=O)N(O)C3=O)N1CCOCC1"
RESULT: inactive

Source of measurements: PubChem BioAssay (NCI)
